Values were extracted from patent US7501541B2.

Target: human orexin-2 (hOX2) receptors (Homo sapiens, UniProt O43614)
Construct: expressed in transfected cells
Sequence (O43614 whole entry): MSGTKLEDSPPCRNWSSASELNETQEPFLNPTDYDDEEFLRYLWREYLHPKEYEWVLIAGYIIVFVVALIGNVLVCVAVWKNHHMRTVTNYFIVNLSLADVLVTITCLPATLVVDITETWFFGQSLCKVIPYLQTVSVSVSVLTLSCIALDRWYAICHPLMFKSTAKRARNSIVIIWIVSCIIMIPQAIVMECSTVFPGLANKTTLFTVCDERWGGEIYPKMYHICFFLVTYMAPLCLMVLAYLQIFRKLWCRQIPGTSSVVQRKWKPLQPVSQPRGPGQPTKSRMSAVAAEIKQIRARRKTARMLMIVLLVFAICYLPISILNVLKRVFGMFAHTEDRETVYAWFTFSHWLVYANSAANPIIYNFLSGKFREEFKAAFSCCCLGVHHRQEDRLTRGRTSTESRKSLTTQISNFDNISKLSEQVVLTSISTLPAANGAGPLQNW
Experiment: Intracellular Ca2+ mobilization assay (FLIPR), CHO(dHFr-) cells expressing hOX2
Format: cell-based
Conditions: antagonism of orexin-A at EC80; Kb=IC50/(1+[A]/EC50); CHO(dHFr-)-OX2R cells
Measurement Kind: Kb (µM)

[1] COCCNC(=O)C(C(=O)N(CCc1ccc(C(F)(F)F)cc1)c1ccc(OC)c(OC)c1)c1ccccc1 (stereo not shown)
[2] CCCNC(=O)C(C(=O)N(CCc1ccc(C(F)(F)F)cc1)c1ccc(OC)c(OC)c1)c1ccccc1 (stereo not shown)
[ask] Dear colleague, could you let me know whether 1 or 2 has the lower recorded Kb? Thanks. Write down the label of the entry you select.
[reply] 1

[a] COc1ccc(N(CCc2ccc(C(F)(F)F)cc2)C(=O)C(C(=O)N(C)CCc2ccccc2)c2ccccc2)cc1OC (stereo not shown)
[b] COc1ccc(N(CCc2ccc(C(F)(F)F)cc2)C(=O)C(C(=O)N(C)C)c2ccccc2)cc1Cl (stereo not shown)
[ask] Dear colleague, could you let me know whether a or b has the lower recorded Kb? Thanks. Write down the label of the entry you select.
[reply] a
(a: 0.0141 µM, b: 0.0572 µM)

[a] CCNC(=O)C(C(=O)N(CCc1ccc(C(F)(F)F)cc1)c1ccc(OC)c(OC)c1)c1ccccc1 (stereo not shown)
[b] COc1ccc(N(CCc2ccc(C(F)(F)F)cc2)C(=O)C(C(=O)Nc2ccc(F)cc2)c2ccccc2)cc1OC (stereo not shown)
[c] COc1ccc(N(CCc2ccc(C(F)(F)F)cc2)C(=O)C(C(=O)NC2CC2)c2ccccc2)cc1OC (stereo not shown)
[ask] Task for the reader: rank each entry by its Kb, from the minimum upward. Put the labels in the order asked and list them.
[reply] c, a, b
(c: 0.0197 µM, a: 0.0299 µM, b: 0.0817 µM)

###

Molecular target: human orexin-2 (hOX2) receptors (Homo sapiens, UniProt O43614)
Construct: expressed in transfected cells
Assay: Intracellular Ca2+ mobilization assay (FLIPR), CHO(dHFr-) cells expressing hOX2
Type: cell-based
Details: antagonism of orexin-A at EC80; Kb=IC50/(1+[A]/EC50); CHO(dHFr-)-OX2R cells
Measurement Kind: Kb (µM)

Use these answered entries as a reference point.
Molecule | Kb, µM
COc1ccc(N(CCc2ccc(C(F)(F)F)cc2)C(=O)C(C(=O)NCC2CC2)c2ccccc2)cc1OC (stereo not shown) [Example 20] | 0.0468
COc1ccc(N(CCc2ccc(C(F)(F)F)cc2)C(=O)C(C(=O)NCc2cccnc2)c2ccccc2)cc1OC (stereo not shown) [Example 24] | 0.245

[1] COc1ccc(N(CCc2ccc(C(F)(F)F)cc2)C(=O)C(C(=O)NCC(F)F)c2ccccc2)cc1OC (stereo not shown) [Example 21]
[2] CCCCNC(=O)C(C(=O)N(CCc1ccc(C(F)(F)F)cc1)c1ccc(OC)c(OC)c1)c1ccccc1 (stereo not shown) [Example 3]
[ask] Dear colleague, could you let me know whether 1 or 2 has the lower recorded Kb? Thanks. Write down the label of the entry you select.
[reply] 1
(1: 0.0278 µM, 2: 0.0419 µM)

###

Biological target: human orexin-1 (hOX1) receptors (Homo sapiens, UniProt O43613)
Construct: expressed in transfected cells
Sequence (O43613 whole entry): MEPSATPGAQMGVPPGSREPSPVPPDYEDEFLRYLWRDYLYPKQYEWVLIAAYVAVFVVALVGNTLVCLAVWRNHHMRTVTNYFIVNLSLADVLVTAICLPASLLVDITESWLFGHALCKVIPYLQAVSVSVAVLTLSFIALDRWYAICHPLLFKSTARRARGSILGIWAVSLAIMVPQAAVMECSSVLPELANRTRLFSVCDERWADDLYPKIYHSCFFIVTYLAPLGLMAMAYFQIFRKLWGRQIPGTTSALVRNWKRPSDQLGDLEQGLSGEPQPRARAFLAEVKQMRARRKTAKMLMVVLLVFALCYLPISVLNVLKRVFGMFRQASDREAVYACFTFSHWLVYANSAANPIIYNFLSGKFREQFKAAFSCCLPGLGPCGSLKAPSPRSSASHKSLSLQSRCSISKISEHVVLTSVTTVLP
Assay: Intracellular Ca2+ mobilization assay (FLIPR), CHO(dHFr-) cells expressing hOX1
Type: cell-based
Conditions: antagonism of orexin-A at EC80; Kb=IC50/(1+[A]/EC50); CHO(dHFr-)-OX1R cells
Measurement Kind: Kb (µM)

Molecule | Measurement Kind | Unit Spec | Numeric Result
CCNC(=O)C(C(=O)N(CCc1ccc(C(F)(F)F)cc1)c1ccc(OC)c(OC)c1)c1ccccc1 (stereo not shown) [Example 17] | Kb | µM | 0.191

[a] COc1ccc(N(CCc2ccc(C(F)(F)F)cc2)C(=O)C(C(=O)N(C)C)c2ccccc2)cc1Cl (stereo not shown) [Example 58]
[b] COc1ccc(N(CCc2ccc(C(F)(F)F)cc2)C(=O)C(C(=O)NC2CCOCC2)c2ccccc2)cc1OC (stereo not shown) [Example 23]
[ask] Dear colleague, could you let me know whether a or b has the lower recorded Kb? Thanks. Write down the label of the entry you select.
[reply] b
(b: 0.238 µM, a: 0.723 µM)
